Test system: TK-10 renal
assayProtocol: NCI tumour cell line growth inhibition, 48 h
Each item that follows carries a reported TGI.

[
  {
    "molecule": "Cc1ccc(C)n1-c1ccccc1C1C=Cn2c(=O)oc3c(OC(C)C)c(OC(C)C)c(O)c1c32 (centres undefined)",
    "relationQualifier": ">",
    "TGI [µM]": 100
  },
  {
    "molecule": "CC1CN(c2cc3c(cc2F)c(=O)c(C(=O)O)cn3-c2ccc(N3CCN(C)CC3)cn2)CC(C)N1 (centres undefined)",
    "relationQualifier": ">",
    "TGI [µM]": 100
  },
  {
    "molecule": "CC1C(c2ccccc2)N(C)C(c2ccccc2)C(C)C1(O)c1ccccc1 (centres undefined)",
    "relationQualifier": ">",
    "TGI [µM]": 100
  },
  {
    "molecule": "Cn1nc(C(F)(F)F)cc1-c1cc(Cl)c(OCc2ccc(Cl)cc2)c(-c2ccc(Cl)c(C(F)(F)F)c2)c1O",
    "relationQualifier": "=",
    "TGI [µM]": 5.56
  },
  {
    "molecule": "N#C/C(=C\\c1ccc[nH]1)c1cc(-c2ccc(Cl)cc2)nn1-c1ccccc1",
    "relationQualifier": "=",
    "TGI [µM]": 21.1
  },
  {
    "molecule": "Cc1cc(I)cc(CN(C)CCCN2CCC(C)CC2)c1O",
    "relationQualifier": "=",
    "TGI [µM]": 29.2
  },
  {
    "molecule": "COc1ccc(C(=O)/C=C/c2ccc(OCc3cccc(C(F)(F)F)c3)c(OC)c2)cc1OC",
    "relationQualifier": ">",
    "TGI [µM]": 1000
  },
  {
    "molecule": "O=C(Nc1ccc(Br)cc1)C(=O)C(C(=O)c1ccc(Cl)c(Cl)c1)C1OC(=O)c2ccccc21 (centres undefined)",
    "relationQualifier": "=",
    "TGI [µM]": 51.6
  },
  {
    "molecule": "NS(=O)(=O)c1ccc(-c2ccc([As](=O)(O)O)cc2)cc1",
    "relationQualifier": ">",
    "TGI [µM]": 100
  }
]

###

System: U251 CNS
assayProtocol: NCI tumour cell line growth inhibition, 48 h

[
  {
    "smilesData": "NC1(c2cc3ccccc3s2)CCCCCC1",
    "assayedTarget": "U251 CNS",
    "relationQualifier": "=",
    "TGI [µM]": 29.1
  },
  {
    "smilesData": "O=S(=O)(O)c1cc(S(=O)(=O)O)c2cc(N=Nc3ccc(N=Nc4ccc(/C=C/c5ccc(N=[N+]([O-])c6ccc(/C=C/c7ccc(N=Nc8ccc(N=Nc9ccc%10cc(S(=O)(=O)O)cc(S(=O)(=O)O)c%10c9)cc8)cc7S(=O)(=O)O)c(S(=O)(=O)O)c6)cc5S(=O)(=O)O)c(S(=O)(=O)O)c4)cc3)ccc2c1",
    "assayedTarget": "U251 CNS",
    "relationQualifier": ">",
    "TGI [µM]": 100
  },
  {
    "smilesData": "N#C/C(=C\\c1ccc[nH]1)c1cc(-c2ccc(Cl)cc2)nn1-c1ccccc1",
    "assayedTarget": "U251 CNS",
    "relationQualifier": "=",
    "TGI [µM]": 24
  }
]
